tested on: Serratia marcescens 1826E; test: Minimum inhibitory concentration (agar 2-fold dilution); format: cell-based; conditions: S. marcescens 1826E, Muller-Hinton agar, 37° C., 20 hours, read-out: Minimum Inhibitory Concentration
Quantity: MIC (µg/mL)
Your answer is read as µg/mL, so omit the unit and give the number.

// worked examples, MIC included
> print(dat)
                        structure.as.smiles           target.or.system  experimental.result
1  Cc1c(N)nc[n+](C/C=C/C2=C(C(=O)[O-])N3C(=O)[C@@H](NC(=O)/C(=N\O[C@@H](C(=O)O)c4ccc(O)c(O)c4)c4csc(N)n4)[C@H]3SC2)c1N  Serratia marcescens 1826E                    2
2  Nc1cc(N)[n+](C/C=C/C2=C(C(=O)[O-])N3C(=O)[C@@H](NC(=O)/C(=N\O[C@H](C(=O)O)c4ccc(O)c(O)c4)c4csc(N)n4)[C@H]3SC2)cn1  Serratia marcescens 1826E                 0.25
3  Nc1cc[n+](C/C=C/C2=C(C(=O)[O-])N3C(=O)[C@@H](NC(=O)/C(=N\O[C@@H](C(=O)O)c4ccc(O)c(O)c4)c4csc(N)n4)[C@H]3SC2)cn1  Serratia marcescens 1826E                    1
4  Nc1nc(/C(=N/O[C@@H](C(=O)O)c2ccc(O)c(O)c2)C(=O)N[C@@H]2C(=O)N3C(C(=O)[O-])=C(/C=C/C[n+]4cnc(N)c(N)c4N)CS[C@H]23)cs1  Serratia marcescens 1826E                    2

Query string: Would you mind telling me what MIC value was observed for `Nc1cc(N)[n+](C/C=C/C2=C(C(=O)[O-])N3C(=O)[C@@H](NC(=O)/C(=N\O[C@@H](C(=O)O)c4ccc(O)c(O)c4)c4csc(N)n4)[C@H]3SC2)cn1` ?
Result string: 2

====

assay: Pharmacokinetic properties in rats (blood concentration by agar well biological assay); design: species or system SD rats (male); conditions: rat, in vivo, iv, 20 mg/kg
// classify: if (AUC < 50 µg·h/mL) T else F

Solved entries:
Compound	Qualitative Label
Cc1c(N)nc[n+](C/C=C/C2=C(C(=O)[O-])N3C(=O)[C@@H](NC(=O)/C(=N\O[C@H](C(=O)O)c4ccc(O)c(O)c4)c4csc(N)n4)[C@H]3SC2)c1N [Compound I-4a]	F
Nc1nc(/C(=N/O[C@H](C(=O)O)c2ccc(O)c(O)c2)C(=O)N[C@@H]2C(=O)N3C(C(=O)[O-])=C(/C=C/C[n+]4cnc(N)c5c4CCC5)CS[C@H]23)cs1 [Compound I-3a]	T
Nc1cc[n+](C/C=C/C2=C(C(=O)[O-])N3C(=O)[C@@H](NC(=O)/C(=N\O[C@H](C(=O)O)c4ccc(O)c(O)c4)c4csc(N)n4)[C@H]3SC2)cn1 [Compound I-2a]	F

Query string: Here's an entry: Nc1cc(N)[n+](C/C=C/C2=C(C(=O)[O-])N3C(=O)[C@@H](NC(=O)/C(=N\O[C@H](C(=O)O)c4ccc(O)c(O)c4)c4csc(N)n4)[C@H]3SC2)cn1 [Compound I-1a] . Is its AUC below 50 µg·h/mL?
Result string: T

====

Here the recorded MIC is given for each entry.
tested on: Serratia marcescens 1826E; assay: Minimum inhibitory concentration (agar 2-fold dilution); format: cell-based; conditions: S. marcescens 1826E, Muller-Hinton agar, 37° C., 20 hours, read-out: Minimum Inhibitory Concentration
Respond with the bare value in µg/mL.

Molecule	Units Symbol	MIC
Nc1nc(/C(=N/O[C@H](C(=O)O)c2ccc(O)c(O)c2)C(=O)N[C@@H]2C(=O)N3C(C(=O)[O-])=C(/C=C/C[n+]4cnc(N)c5c4CCC5)CS[C@H]23)cs1 [Compound I-3a]	µg/mL	0.5
Nc1cc[n+](C/C=C/C2=C(C(=O)[O-])N3C(=O)[C@@H](NC(=O)/C(=N\O[C@H](C(=O)O)c4ccc(O)c(O)c4)c4csc(N)n4)[C@H]3SC2)cn1 [Compound I-2a]	µg/mL	0.5
Nc1nc(/C(=N/O[C@H](C(=O)O)c2ccc(O)c(O)c2)C(=O)N[C@@H]2C(=O)N3C(C(=O)[O-])=C(/C=C/C[n+]4cnc(N)c(N)c4N)CS[C@H]23)cs1 [Compound I-5a]	µg/mL	0.5

Query string: I am curious: what MIC value has been reported for Cc1c(N)nc[n+](C/C=C/C2=C(C(=O)[O-])N3C(=O)[C@@H](NC(=O)/C(=N\O[C@H](C(=O)O)c4ccc(O)c(O)c4)c4csc(N)n4)[C@H]3SC2)c1N [Compound I-4a] ?
Result string: 0.25

Query string: Which value of MIC has been reported for Nc1nc(/C(=N/O[C@@H](C(=O)O)c2ccc(O)c(O)c2)C(=O)N[C@@H]2C(=O)N3C(C(=O)[O-])=C(/C=C/C[n+]4cnc(N)c5c4CCC5)CS[C@H]23)cs1 [Compound I-3b] in the records?
Result string: 4

====

Tested on: Klebsiella aerogenes SHV-1 1976E
Experiment: Minimum inhibitory concentration (agar 2-fold dilution)
Format: cell-based
Settings: SHV11976E, K. aerogenes SHV-1 1976E, Muller-Hinton agar, 37° C., 20 hours
Protocol: The minimum inhibitory concentration was determined by diluting the test compounds according to 2-fold dilution, suspending them in Muller-Hinton agar medium, inoculating 2 μl of the suspension containing the test strains having 10^7 CFU (Colony Forming Unit) per 1 ml into the medium and then culturing the test strains at 37° C. for 20 hours.
Quantity: MIC (µg/mL)
Please state the figure in µg/mL; there is no need to write the unit.

> print(dat)
                        structure.as.smiles  quantity  units.symbol  experimental.result
1  Nc1cc(N)[n+](C/C=C/C2=C(C(=O)[O-])N3C(=O)[C@@H](NC(=O)/C(=N\O[C@H](C(=O)O)c4ccc(O)c(O)c4)c4csc(N)n4)[C@H]3SC2)cn1       MIC         µg/mL                 0.13
2  Cc1c(N)nc[n+](C/C=C/C2=C(C(=O)[O-])N3C(=O)[C@@H](NC(=O)/C(=N\O[C@@H](C(=O)O)c4ccc(O)c(O)c4)c4csc(N)n4)[C@H]3SC2)c1N       MIC         µg/mL                    1

Query string: So what's the measured MIC for this one? `Cc1c(N)nc[n+](C/C=C/C2=C(C(=O)[O-])N3C(=O)[C@@H](NC(=O)/C(=N\O[C@H](C(=O)O)c4ccc(O)c(O)c4)c4csc(N)n4)[C@H]3SC2)c1N`
Result string: 0.13

Query string: Returns the measured MIC for the input molecule. Input: `Nc1nc(/C(=N/O[C@H](C(=O)O)c2ccc(O)c(O)c2)C(=O)N[C@@H]2C(=O)N3C(C(=O)[O-])=C(/C=C/C[n+]4cnc(N)c(N)c4N)CS[C@H]23)cs1`
Result string: 0.5

Query string: Request the reported MIC associated with `Nc1nc(/C(=N/O[C@@H](C(=O)O)c2ccc(O)c(O)c2)C(=O)N[C@@H]2C(=O)N3C(C(=O)[O-])=C(/C=C/C[n+]4cnc(N)c(N)c4N)CS[C@H]23)cs1`
Result string: 1

====

tested on: Staphylococcus aureus 77; assay: Minimum inhibitory concentration (agar 2-fold dilution); format: cell-based; conditions: Staphylococcus aureus; S. aureus 77; Muller-Hinton agar, 37° C., 20 hours; read-out: Minimum Inhibitory Concentration
Quantity: MIC (µg/mL)
Quick note: give the figure in µg/mL, leave out the unit.

Known MIC results, listed for orientation:
> print(dat)
                        structure.as.smiles  experimental.result
1  Nc1nc(/C(=N/O[C@H](C(=O)O)c2ccc(O)c(O)c2)C(=O)N[C@@H]2C(=O)N3C(C(=O)[O-])=C(/C=C/C[n+]4cnc(N)c(N)c4N)CS[C@H]23)cs1                    2
2  Nc1cc(N)[n+](C/C=C/C2=C(C(=O)[O-])N3C(=O)[C@@H](NC(=O)/C(=N\O[C@@H](C(=O)O)c4ccc(O)c(O)c4)c4csc(N)n4)[C@H]3SC2)cn1                    2
3  Nc1nc(/C(=N/O[C@H](C(=O)O)c2ccc(O)c(O)c2)C(=O)N[C@@H]2C(=O)N3C(C(=O)[O-])=C(/C=C/C[n+]4cnc(N)c5c4CCC5)CS[C@H]23)cs1                    4
4  Cc1c(N)nc[n+](C/C=C/C2=C(C(=O)[O-])N3C(=O)[C@@H](NC(=O)/C(=N\O[C@H](C(=O)O)c4ccc(O)c(O)c4)c4csc(N)n4)[C@H]3SC2)c1N                    2

Query string: Dear colleague, I am looking for the recorded MIC of the following compound: `Nc1cc(N)[n+](C/C=C/C2=C(C(=O)[O-])N3C(=O)[C@@H](NC(=O)/C(=N\O[C@H](C(=O)O)c4ccc(O)c(O)c4)c4csc(N)n4)[C@H]3SC2)cn1`
Result string: 4
